target: UniProt P03372; assay: Degradation of ERα in T-47D cells (immunoblotting, 4 h); format: cell-based; set-up: host or cells: T-47D; conditions: 1nM compound
Response field label: string, one of label 1 (Degradation rate (%) of ERα in T-47D cells strictly below 40%) or label 0.

Compound | Tested system | Label value
O=C1CCC(N2Cc3c(ccc4c3OCC43CCN(C4CC5(CCC6(CCN(C7CCN(c8ccc([C@@H]9c%10ccc(O)cc%10CC[C@@H]9c9ccccc9)cc8)CC7)CC6)CC5)C4)CC3)C2=O)C(=O)N1 (stereo partly shown) [K15] | UniProt P03372 | label 1
O=C1CCC(N2Cc3c(ccc4c3OCC43CCN(C(=O)c4ccc(CN5CCN(c6ccc([C@@H]7c8ccc(O)cc8CC[C@@H]7c7ccccc7)cc6)CC5)nc4)CC3)C2=O)C(=O)N1 (stereo partly shown) [B47] | UniProt P03372 | label 0
CN(C(=O)CN1CCC2(CC1)COc1c2ccc2c1CN(C1CCC(=O)NC1=O)C2=O)C1CCC2(CC1)CCN(c1ccc([C@@H]3c4ccc(O)cc4CC[C@@H]3c3ccccc3)cc1)CC2 (stereo partly shown) [H50] | UniProt P03372 | label 1
O=C1CCC(N2Cc3c(ccc4c3OCC43CCN(C(=O)[C@H]4CC[C@@H](N(CC5CC5)CC5CCN(c6ccc([C@@H]7c8ccc(O)cc8CC[C@@H]7c7ccccc7)cc6)CC5)CC4)CC3)C2=O)C(=O)N1 (stereo partly shown) [N11] | UniProt P03372 | label 0
O=C1CCC(N2Cc3c(ccc4c3OCC43CCN(C(=O)C4CCC(N5CCC(C#Cc6ccc([C@@H]7c8ccc(O)cc8CC[C@@H]7c7ccccc7)cc6)CC5)CC4)CC3)C2=O)C(=O)N1 (stereo partly shown) [A101] | UniProt P03372 | label 0
O=C1CCC(N2Cc3c(ccc4c3OCC43CCN(C[C@H]4CC[C@H](OC5CCN(c6ccc([C@@H]7c8ccc(O)cc8CC[C@@H]7c7ccccc7)cc6)CC5)CC4)CC3)C2=O)C(=O)N1 (stereo partly shown) [G24] | UniProt P03372 | label 0

====

molecular target: ERα (Homo sapiens); test: Degradation of ERα in T-47D cells (immunoblotting, 4 h); format: cell-based; set-up: host or cells: T-47D; details: 1nM compound
Sequence (P03372 whole entry): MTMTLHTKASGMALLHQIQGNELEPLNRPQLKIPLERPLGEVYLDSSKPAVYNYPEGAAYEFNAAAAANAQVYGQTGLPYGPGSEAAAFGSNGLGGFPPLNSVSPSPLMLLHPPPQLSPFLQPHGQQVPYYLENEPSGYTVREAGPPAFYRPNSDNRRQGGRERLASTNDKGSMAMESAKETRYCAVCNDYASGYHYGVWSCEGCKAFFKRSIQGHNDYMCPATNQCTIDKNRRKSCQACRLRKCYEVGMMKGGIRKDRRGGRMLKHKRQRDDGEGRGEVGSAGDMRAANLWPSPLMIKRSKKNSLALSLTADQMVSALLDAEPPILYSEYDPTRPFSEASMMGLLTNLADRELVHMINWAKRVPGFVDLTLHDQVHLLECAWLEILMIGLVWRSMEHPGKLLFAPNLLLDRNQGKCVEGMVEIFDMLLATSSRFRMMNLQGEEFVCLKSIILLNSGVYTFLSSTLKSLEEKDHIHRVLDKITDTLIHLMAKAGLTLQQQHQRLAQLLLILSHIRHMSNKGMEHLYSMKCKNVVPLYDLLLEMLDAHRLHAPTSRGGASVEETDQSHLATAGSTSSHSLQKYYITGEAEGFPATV
Known Degradation rate (%) of ERα in T-47D cells of a selection of compounds
Endpoint name: Degradation rate (%) of ERα in T-47D cells

Compound | Measured number
C[C@@H]1Cc2c(ccc3[nH]ncc23)C(c2ccc(N3CCC(N4CC[C@@H](N5CCC6(CC5)COc5c6ccc6c5CN(C5CCC(=O)NC5=O)C6=O)[C@@H](F)C4)CC3)cn2)N1CC(F)(F)F (stereo partly drawn) [H57] | 38
CCNC(=O)[C@@H]1CC(N2CCC3(CC2)COc2c3ccc3c2CN(C2CCC(=O)NC2=O)C3=O)CCN1C1CC2(CCN(c3ccc([C@@H]4c5ccc(O)cc5CC[C@@H]4c4ccccc4)cc3)CC2)C1 (stereo partly drawn) [H40] | 56
CN(C)C(=O)[C@@H]1CC(N2CCC3(CC2)COc2c3ccc3c2CN(C2CCC(=O)NC2=O)C3=O)CCN1C(=O)C1CCN(c2ccc([C@@H]3c4ccc(O)cc4CC[C@@H]3c3ccccc3)cc2)CC1 (stereo partly drawn) [K29] | 46
